// reported IC50 for each item listed
molecular target: human ROCKα/ROCKII mix (Homo sapiens); construct: purchased Upstate Biotechnology 14-451; test: Biochemical assay for ROCK (fluorescence polarization, ROCK IMAP Kit); details: Table 2, compounds of Formula XIII
Sequence (O75116 11-552 limits assumed): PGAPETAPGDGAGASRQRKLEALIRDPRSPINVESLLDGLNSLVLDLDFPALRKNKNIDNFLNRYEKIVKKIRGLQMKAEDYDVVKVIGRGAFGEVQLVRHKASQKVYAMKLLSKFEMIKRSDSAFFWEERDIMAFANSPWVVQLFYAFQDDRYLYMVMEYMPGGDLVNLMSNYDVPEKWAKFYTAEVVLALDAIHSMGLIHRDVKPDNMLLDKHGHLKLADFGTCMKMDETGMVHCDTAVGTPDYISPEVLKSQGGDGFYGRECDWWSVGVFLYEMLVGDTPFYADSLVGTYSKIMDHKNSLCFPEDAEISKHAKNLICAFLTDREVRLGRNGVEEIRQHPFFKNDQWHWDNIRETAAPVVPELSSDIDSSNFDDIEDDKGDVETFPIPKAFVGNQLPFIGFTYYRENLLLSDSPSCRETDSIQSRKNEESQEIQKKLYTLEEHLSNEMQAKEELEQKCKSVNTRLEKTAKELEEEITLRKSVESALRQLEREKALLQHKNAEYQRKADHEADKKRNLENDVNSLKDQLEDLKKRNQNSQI
Measured Attribute: IC50

{"Compound": "NC(CNC(=O)CC1Cc2ccccc2C1)c1ccc(C(=O)Nc2ccncc2)cc1 (stereo not shown)", "Measured Attribute": "IC50", "Result": "0.05 to 0.5 µM"}
{"Compound": "NC(CNC(=O)C1CCCCc2ccc(F)cc21)c1ccc(C(=O)Nc2ccncc2)cc1 (stereo not shown)", "Measured Attribute": "IC50", "Result": "0.05 to 0.5 µM"}
{"Compound": "Cc1ccc(C(=O)NCC(N)c2ccc(C(=O)Nc3ccncc3)cc2)cc1 (stereo not shown)", "Measured Attribute": "IC50", "Result": "0.5 to 5 µM"}
{"Compound": "CC(C)(C)ON=Cc1ccc(C(=O)NCC(N)c2ccc(C(=O)Nc3ccncc3)cc2)cc1 (racemic)", "Measured Attribute": "IC50", "Result": "0.5 to 5 µM"}
{"Compound": "NC(CNC(=O)CC(c1ccccc1)c1ccccc1)c1ccc(C(=O)Nc2ccncc2)cc1 (stereo not shown)", "Measured Attribute": "IC50", "Result": "0.05 to 0.5 µM"}
{"Compound": "NC(CNC(=O)Cc1csc(Nc2ccccc2)n1)c1ccc(C(=O)Nc2ccncc2)cc1 (stereo not shown)", "Measured Attribute": "IC50", "Result": "0.5 to 5 µM"}
{"Compound": "Cc1cc(Cl)ccc1OC(C)C(=O)NCC(N)c1ccc(C(=O)Nc2ccncc2)cc1 (stereo not shown)", "Measured Attribute": "IC50", "Result": "0.05 to 0.5 µM"}
{"Compound": "NC(CNC(=O)CNC(=O)c1ccco1)c1ccc(C(=O)Nc2ccncc2)cc1 (stereo not shown)", "Measured Attribute": "IC50", "Result": "0.05 to 0.5 µM"}
{"Compound": "NC(CNC(=O)c1ccsc1)c1ccc(C(=O)Nc2ccncc2)cc1 (stereo not shown)", "Measured Attribute": "IC50", "Result": "0.05 to 0.5 µM"}
{"Compound": "NC(CNC(=O)c1cccc(F)c1)c1ccc(C(=O)Nc2ccncc2)cc1 (stereo not shown)", "Measured Attribute": "IC50", "Result": "0.5 to 5 µM"}
{"Compound": "NC(CNC(=O)C1(c2ccc(Cl)cc2F)CC1)c1ccc(C(=O)Nc2ccncc2)cc1 (stereo not shown)", "Measured Attribute": "IC50", "Result": "0.05 to 0.5 µM"}
{"Compound": "NC(CNC(=O)c1cccc(Cl)c1)c1ccc(C(=O)Nc2ccncc2)cc1 (stereo not shown)", "Measured Attribute": "IC50", "Result": "0.5 to 5 µM"}
{"Compound": "CN(C)CCCC(=O)NCC(N)c1ccc(C(=O)Nc2ccncc2)cc1 (stereo not shown)", "Measured Attribute": "IC50", "Result": "0.5 to 5 µM"}
{"Compound": "CC(C)(C(=O)NCC(N)c1ccc(C(=O)Nc2ccncc2)cc1)c1ccc(F)cc1F (stereo not shown)", "Measured Attribute": "IC50", "Result": "0.05 to 0.5 µM"}
{"Compound": "NC(CNC(=O)CSc1ncccn1)c1ccc(C(=O)Nc2ccncc2)cc1 (stereo not shown)", "Measured Attribute": "IC50", "Result": "0.5 to 5 µM"}
{"Compound": "CCCC(=O)NCC(N)c1ccc(C(=O)Nc2ccncc2)cc1 (stereo not shown)", "Measured Attribute": "IC50", "Result": "0.5 to 5 µM"}

----------
// reported IC50 for each item listed
target: human ROCKα/ROCKII mix (Homo sapiens); construct: purchased Upstate Biotechnology 14-451; experiment: Biochemical assay for ROCK (fluorescence polarization, ROCK IMAP Kit)
Measured Attribute: IC50

{"Compound": "Cc1ccccc1NC(=S)NCC(N)c1ccc(C(=O)Nc2ccncc2)cc1 (centres unmarked)", "Measured Attribute": "IC50", "Result": "0.5 to 5 µM"}
{"Compound": "NC(c1ccc(C(=O)Nc2ccncc2)cc1)C1CCCN1C(=O)C1CCOc2ccc(Cl)cc21 (centres unmarked)", "Measured Attribute": "IC50", "Result": "0.5 to 5 µM"}
{"Compound": "CN(CC(N)c1ccc(C(=O)Nc2ccncc2)cc1)C(=O)C1(c2ccc(F)c(F)c2)CC1 (centres unmarked)", "Measured Attribute": "IC50", "Result": "0.5 to 5 µM"}
{"Compound": "COc1ccc(CC(=O)N2CCCC2C(N)c2ccc(C(=O)Nc3ccncc3)cc2)cc1 (centres unmarked)", "Measured Attribute": "IC50", "Result": "0.05 to 0.5 µM"}
{"Compound": "CC(C)(C)c1ccc(NC(=O)NCC(N)c2ccc(C(=O)Nc3ccncc3)cc2)cc1 (centres unmarked)", "Measured Attribute": "IC50", "Result": "0.5 to 5 µM"}
{"Compound": "CN(CC(N)c1ccc(C(=O)Nc2ccncc2)cc1)C(=O)C1CC(=O)c2ccccc21 (centres unmarked)", "Measured Attribute": "IC50", "Result": "0.5 to 5 µM"}
{"Compound": "CC(C)(C)c1ccc(NC(=S)NCC(N)c2ccc(C(=O)Nc3ccncc3)cc2)cc1 (centres unmarked)", "Measured Attribute": "IC50", "Result": "0.5 to 5 µM"}
{"Compound": "NC(c1ccc(C(=O)Nc2ccncc2)cc1)C1CCCN1C(=O)Cc1cccc(F)c1 (centres unmarked)", "Measured Attribute": "IC50", "Result": "0.5 to 5 µM"}
{"Compound": "CN(CC(N)c1ccc(C(=O)Nc2ccncc2)cc1)C(=O)C1(c2ccc(F)cc2F)CC1 (centres unmarked)", "Measured Attribute": "IC50", "Result": "0.5 to 5 µM"}
{"Compound": "CN(CC(N)c1ccc(C(=O)Nc2ccncc2)cc1)C(=O)C1(c2ccc(Cl)c(Cl)c2)CC1 (centres unmarked)", "Measured Attribute": "IC50", "Result": "0.5 to 5 µM"}
{"Compound": "CN(CC(N)c1ccc(C(=O)Nc2ccncc2)cc1)C(=O)C(C)(C)c1ccc(F)c(F)c1 (centres unmarked)", "Measured Attribute": "IC50", "Result": "0.5 to 5 µM"}
{"Compound": "CN(CC(N)c1ccc(C(=O)Nc2ccncc2)cc1)C(=O)C1CCCc2ccccc21 (centres unmarked)", "Measured Attribute": "IC50", "Result": "0.5 to 5 µM"}
{"Compound": "NC(c1ccc(C(=O)Nc2ccncc2)cc1)C1CCCN1C(=O)C1(c2ccc(Cl)cc2)CCC1 (centres unmarked)", "Measured Attribute": "IC50", "Result": "0.5 to 5 µM"}
{"Compound": "NC(c1ccc(C(=O)Nc2ccncc2)cc1)C1CCCN1C(=O)Cc1cccs1 (centres unmarked)", "Measured Attribute": "IC50", "Result": "0.05 to 0.5 µM"}
{"Compound": "NC(CNC(=S)Nc1cccc2ccccc12)c1ccc(C(=O)Nc2ccncc2)cc1 (centres unmarked)", "Measured Attribute": "IC50", "Result": "0.05 to 0.5 µM"}
{"Compound": "N[C@@H](CC(=O)N[C@@H]1CCCc2ccccc21)c1ccc(C(=O)Nc2ccncc2)cc1", "Measured Attribute": "IC50", "Result": "0.05 to 0.5 µM"}
{"Compound": "CCNC(=S)NCC(N)c1ccc(C(=O)Nc2ccncc2)cc1 (centres unmarked)", "Measured Attribute": "IC50", "Result": "0.5 to 5 µM"}
{"Compound": "CN(CC(N)c1ccc(C(=O)Nc2ccncc2)cc1)C(=O)Cc1cccc(F)c1F (centres unmarked)", "Measured Attribute": "IC50", "Result": "0.5 to 5 µM"}
{"Compound": "CN(C)c1ccc(NC(=O)NCC(N)c2ccc(C(=O)Nc3ccncc3)cc2)cc1 (centres unmarked)", "Measured Attribute": "IC50", "Result": "0.05 to 0.5 µM"}
{"Compound": "NC(c1ccc(C(=O)Nc2ccncc2)cc1)C1CCCN1C(=O)C1CCCc2sccc21 (centres unmarked)", "Measured Attribute": "IC50", "Result": "0.05 to 0.5 µM"}
{"Compound": "COc1ccc(NC(=S)NCC(N)c2ccc(C(=O)Nc3ccncc3)cc2)cc1 (centres unmarked)", "Measured Attribute": "IC50", "Result": "0.5 to 5 µM"}
{"Compound": "NC(CNC(=S)Nc1ccc(OC(F)(F)F)cc1)c1ccc(C(=O)Nc2ccncc2)cc1 (centres unmarked)", "Measured Attribute": "IC50", "Result": "0.5 to 5 µM"}
{"Compound": "N[C@H](CC(=O)N[C@H]1CCCc2ccccc21)c1ccc(C(=O)Nc2ccncc2)cc1", "Measured Attribute": "IC50", "Result": "0.05 to 0.5 µM"}
{"Compound": "NC(c1ccc(C(=O)Nc2ccncc2)cc1)C1CCCN1C(=O)Cc1ccccc1F (centres unmarked)", "Measured Attribute": "IC50", "Result": "0.05 to 0.5 µM"}
{"Compound": "NC(c1ccc(C(=O)Nc2ccncc2)cc1)C1CCCN1C(=O)C1(c2ccc(F)c(F)c2)CCCC1 (centres unmarked)", "Measured Attribute": "IC50", "Result": "0.5 to 5 µM"}
{"Compound": "NC(c1ccc(C(=O)Nc2ccncc2)cc1)C1CCCN1C(=O)C1(c2ccc(F)cc2)CC1 (centres unmarked)", "Measured Attribute": "IC50", "Result": "0.5 to 5 µM"}
{"Compound": "NC(c1ccc(C(=O)Nc2ccncc2)cc1)C1CCCN1C(=O)Cc1ccc2ccccc2c1 (centres unmarked)", "Measured Attribute": "IC50", "Result": "0.5 to 5 µM"}
{"Compound": "CC(C)C(C(=O)N1CCCC1C(N)c1ccc(C(=O)Nc2ccncc2)cc1)c1ccc(Cl)cc1 (centres unmarked)", "Measured Attribute": "IC50", "Result": "0.5 to 5 µM"}
{"Compound": "NC(c1ccc(C(=O)Nc2ccncc2)cc1)C1CCCN1C(=O)C1(c2ccc(F)c(F)c2)CC1 (centres unmarked)", "Measured Attribute": "IC50", "Result": "0.5 to 5 µM"}
{"Compound": "NC(c1ccc(C(=O)Nc2ccncc2)cc1)C1CCCN1C(=O)Cc1ccc(Br)cc1 (centres unmarked)", "Measured Attribute": "IC50", "Result": "0.05 to 0.5 µM"}
{"Compound": "NC(c1ccc(C(=O)Nc2ccncc2)cc1)C1CCCN1C(=O)Cc1c[nH]c2ccccc12 (centres unmarked)", "Measured Attribute": "IC50", "Result": "0.5 to 5 µM"}
{"Compound": "COc1ccc(NC(=O)NCC(N)c2ccc(C(=O)Nc3ccncc3)cc2)cc1 (centres unmarked)", "Measured Attribute": "IC50", "Result": "0.05 to 0.5 µM"}
